B1: TPR t1 (parent)
chain: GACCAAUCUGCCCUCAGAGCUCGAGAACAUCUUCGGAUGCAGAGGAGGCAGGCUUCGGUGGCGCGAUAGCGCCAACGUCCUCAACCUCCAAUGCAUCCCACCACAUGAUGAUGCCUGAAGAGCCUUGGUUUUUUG

variants of: B1; assay: polymerase ribozyme fitness, log enrichment relative to wild type (log ratio); higher = more active; in vitro selection for triplet polymerase activity
Quantity: polymerase ribozyme fitness (log ratio)

(Q) Query: polymerase ribozyme fitness (log ratio); subject: A16U A43U U112C
(A) -1.59

(Q) Look up polymerase ribozyme fitness (log ratio): G63C G110U
(A) -2.57

(Q) Which polymerase ribozyme fitness (log ratio) value belongs to C104G U112A ?
(A) -4.8

(Q) Query: polymerase ribozyme fitness (log ratio); subject: U78C C80G A121G
(A) -2.75

(Q) Given U87G G113U , state its recorded polymerase ribozyme fitness (log ratio).
(A) -3.33

(Q) Looking for the measured polymerase ribozyme fitness (log ratio) of A27G C56G U81A C94A G122A C123A U131A , can you help?
(A) -5.75

(Q) For the variant C31U C124U , what polymerase ribozyme fitness (log ratio) is on record?
(A) -3.64

(Q) Would you mind telling me what polymerase ribozyme fitness (log ratio) value was observed for G45A C80A C115A ?
(A) -3.93

(Q) Entry A27G G60U has what polymerase ribozyme fitness (log ratio)?
(A) -1.6

(Q) Requested read-out: polymerase ribozyme fitness (log ratio). Entry: U7G C79U C124G
(A) 2.41

(Q) Given the entry G10A C40U A46C U130G , report its measured polymerase ribozyme fitness (log ratio).
(A) -2.46

(Q) Request the reported polymerase ribozyme fitness (log ratio) associated with C11A G69U G120A U132A
(A) 2

(Q) Query (variant): U9C C53U G69C ; field requested: polymerase ribozyme fitness (log ratio)
(A) -0.176

(Q) // polymerase ribozyme fitness (log ratio) lookup, key: A2U C13U C85G U131G
(A) -3.98

(Q) Recorded polymerase ribozyme fitness (log ratio) for C13G G69A , please?
(A) -3.66

(Q) What value of polymerase ribozyme fitness (log ratio) has been recorded for this entry: C72G U87G G117A
(A) -2.09

(Q) Name the reported polymerase ribozyme fitness (log ratio) value associated with the variant G45A G61U C70U G110U U125C
(A) -3.2

(Q) Any idea what its polymerase ribozyme fitness (log ratio) is? The variant is C40U G113U
(A) -2.53

(Q) For the variant A16U G61A U81A C88G , what polymerase ribozyme fitness (log ratio) is on record?
(A) -3.75

(Q) For the variant shown here, A16C G52C C62U , give the reported polymerase ribozyme fitness (log ratio).
(A) -3.32

(Q) Using the record for A29U A50C C98U , report its polymerase ribozyme fitness (log ratio).
(A) -3.99

(Q) I'd like to know its polymerase ribozyme fitness (log ratio). The variant in question is C62U C115U
(A) -1.22
